method_summary: Cytotoxicity against human HEK293 cells assessed as reduction in cell viability at 10 uM incubated for 24 hrs by Cell-Titer Glo luminescence assay
Assay type: toxicity, cell-based
applied_conditions: read-out: INH
Reported cytotoxicity at 24 h, 10 µM values follow for various compounds

Report cytotoxicity at 24 h, 10 µM for COc1cccc(Nc2ncnc3c(N/N=C/c4cc(O)c(O)c(O)c4)ncnc23)c1 please.
8%

Report cytotoxicity at 24 h, 10 µM for NNc1ncnc2c(Nc3ccc(OC(F)(F)F)cc3)ncnc12 please.
17%

Report cytotoxicity at 24 h, 10 µM for COc1cccc(Nc2ncnc3c(NN)ncnc23)c1 please.
12%

Report cytotoxicity at 24 h, 10 µM for COc1ccc(Nc2ncnc3c(N/N=C/c4ccc(O)c(O)c4)ncnc23)cc1 please.
18%

Report cytotoxicity at 24 h, 10 µM for COc1cc(/C=N/Nc2ncnc3c(Nc4ccc(F)c(Cl)c4)ncnc23)cc(OC)c1O please.
11%

Origin of the recorded values: ChEMBL document CHEMBL5614450
